Ref: patent US12122785B2

test system: TYK2 pseudokinase (JH2); IFNα-stimulated HEK-Blue IFNα/β cells; assay: HEK-Blue IFNα/β reporter assay (STAT1-inducible SEAP) for profiling TYK2 pseudokinase (JH2) inhibition; format: cell-based; details: 1 ng/mL human recombinant IFNα, SEAP readout, read-out: IFNα (TYK2 inhibitory activity, IC50)
pIC50: −log10 of the molar value.
METRIC NAME: pIC50

>>> val("[2H]C([2H])([2H])NC(=O)c1cnc(NC(=O)C2CC2)cc1Nc1cccc2c1N(C)Cc1cc(C(F)(F)F)nn1-2")
"6.00 to 6.52"
>>> val("[2H]C([2H])([2H])NC(=O)c1nnc(NC(=O)C2CC2)cc1Nc1nccc2c1N(C)[C@@H](C)c1cn(C)nc1-2 (single isomer, unassigned)")
"6.52 to 7.52"
>>> val("[2H]C([2H])([2H])NC(=O)c1cnc(NC(=O)C2CC2)cc1Nc1cccc2c1N(C)C([2H])([2H])c1cn(C)nc1-2")
"> 7.52"
>>> val("[2H]C([2H])([2H])NC(=O)c1cnc(NC(=O)C2CC2)cc1Nc1cccc2c1N(C)Cc1cn(C)nc1-2")
"> 7.52"
>>> val("CNC(=O)c1nnc(NC(=O)C2CC2)cc1Nc1cccc2c1OCc1cnn(C)c1-2")
"6.00 to 6.52"
>>> val("[2H]C([2H])([2H])NC(=O)c1nnc(NC(=O)C2CC2)cc1Nc1cccc2c1N(C)C([2H])([2H])c1ccnn1-2")
"> 7.52"
>>> val("CNC(=O)c1nnc(Nc2ccc(F)cn2)cc1Nc1cccc2c1OCc1cn(C3COC3)nc1-2")
"< 6.00"
>>> val("[2H]C([2H])([2H])NC(=O)c1nnc(NC(=O)C2CC2)cc1Nc1nccc2c1N(C)Cc1cc(C)nn1-2")
"> 7.52"
>>> val("[2H]C([2H])([2H])NC(=O)c1nnc(NC(=O)C2CC2)cc1Nc1cccc2c1N(C)Cc1cn(C([2H])([2H])[2H])nc1-2")
"> 7.52"
>>> val("[2H]C([2H])([2H])NC(=O)c1cnc(NC(=O)C2CC2)cc1Nc1nccc2c1N(C)Cc1cn(C)nc1-2")
"> 7.52"
>>> val("[2H]C([2H])([2H])NC(=O)c1cnc(NC(=O)C2(O)CC2)cc1Nc1cccc2c1N(C)Cc1cn(C)nc1-2")
"6.52 to 7.52"
>>> val("[2H]C([2H])([2H])NC(=O)c1cnc(NC(=O)C2CC2)nc1Nc1cccc2c1N(C)Cc1cn(C)nc1-2")
"> 7.52"
>>> val("[2H]C([2H])([2H])NC(=O)c1cnc(NC(=O)C2CC2)cc1Nc1nccc2c1N(C([2H])([2H])[2H])Cc1cn(C)nc1-2")
"> 7.52"
>>> val("[2H]C([2H])([2H])NC(=O)c1nnc(NC(=O)C2CC2)cc1Nc1nccc2c1N(C)Cc1cn(C)nc1-2")
"> 7.52"
